assay: In vivo pharmacokinetics in CD-1 mice; conditions: male, CD-1, mouse, plasma, male CD-1 mice; study doses 1 mg/kg intravenous, 2 mg/kg oral; route not given; read-out: Max concentration Cmax
Structures can show the parent of a compound that is named as a salt.
Decide using Cmax alone. Strictly below 700 nM: t. Equal to or above 700 nM: f.

A selection of reference data follows.
# TODO verify Cmax < 700 nM strictly for this compound: NC(=O)c1ccc(CN2CCC3(CC2)CC(N[C@@H]2C[C@H]2c2ccccc2)CO3)cc1 (some centres unmarked) [Hydrochloride of the compound 23]
t

I wonder whether NC1(C(=O)N2CCC3(CC2)CC(N[C@@H]2C[C@H]2c2ccccc2)CO3)CC1 (some centres unmarked) [Hydrochloride of the compound 34] has Cmax below 700 nM. Can you tell?
f

Consider the additional compound presented here.
Does O=C(O)c1ccc(CN2CCC3(CC2)CC(N[C@@H]2C[C@H]2c2ccccc2)CO3)nc1 (some centres unmarked) [Hydrochloride of the compound 14] have Cmax strictly under 700 nM?
t
